The origin of these recorded values is ChEMBL document CHEMBL4265896.

Listed here are compounds together with their documented pIC50.
TESTED ON: Ribosomal protein S6 kinase alpha-3 (Homo sapiens, UniProt P51812)
Sequence (P51812 whole entry): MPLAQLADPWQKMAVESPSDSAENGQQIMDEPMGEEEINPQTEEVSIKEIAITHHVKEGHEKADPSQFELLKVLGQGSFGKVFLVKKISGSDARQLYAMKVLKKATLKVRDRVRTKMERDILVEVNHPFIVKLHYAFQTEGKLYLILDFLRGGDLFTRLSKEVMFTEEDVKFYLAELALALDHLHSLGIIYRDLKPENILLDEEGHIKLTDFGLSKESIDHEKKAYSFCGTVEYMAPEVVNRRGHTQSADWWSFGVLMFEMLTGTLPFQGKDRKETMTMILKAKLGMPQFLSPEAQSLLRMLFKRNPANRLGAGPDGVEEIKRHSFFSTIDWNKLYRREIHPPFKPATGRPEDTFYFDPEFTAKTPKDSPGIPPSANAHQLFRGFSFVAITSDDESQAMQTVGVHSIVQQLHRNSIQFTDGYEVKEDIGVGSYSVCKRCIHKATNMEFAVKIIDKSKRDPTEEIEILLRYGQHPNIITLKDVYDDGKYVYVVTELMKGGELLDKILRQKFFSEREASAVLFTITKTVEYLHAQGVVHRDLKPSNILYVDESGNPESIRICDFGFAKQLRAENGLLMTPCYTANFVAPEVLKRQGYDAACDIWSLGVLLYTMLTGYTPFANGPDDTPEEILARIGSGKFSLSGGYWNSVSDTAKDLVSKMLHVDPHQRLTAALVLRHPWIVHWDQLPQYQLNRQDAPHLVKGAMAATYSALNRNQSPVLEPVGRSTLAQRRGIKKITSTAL
RUN DESCRIPTION: Inhibition of RSK2 (unknown origin) assessed as reduction in YB1 […] phosphorylation
FYI, pIC50 means -log10 of a concentration in mol per litre.

                                smiles_data  observed
0  CN1CCN(c2ccc(-c3c(-c4cc(F)cc(F)c4)cnc4[nH]ccc34)cc2)CC1      5.22
1  Oc1c(F)cc(-c2cnccc2-c2ccc(N3CCOCC3)cc2)cc1F      6.68
2  CN1CCN(c2ccc(-c3c(-c4cc(F)c(O)c(F)c4)cnc4[nH]ccc34)cc2)CC1      7.27

Bench note: what pIC50 did Cc1ccc(-c2c(-c3cc(F)c(O)c(F)c3)cnc3[nH]ccc23)cc1 show?
6.63

Follow-up entry: CN1CCN(c2ccc(-c3ccncc3-c3cc(F)c(O)c(F)c3)cc2)CC1
6.47

Follow-up entry: CN1CCN(c2ccc(-c3c(-c4cn[nH]c4)cnc4[nH]ccc34)cc2)CC1
5.62

Follow-up entry: CN1CCN(c2ccc(-c3c(-c4ccc(C(F)F)cc4)cnc4[nH]ccc34)cc2)CC1
4.74

Follow-up entry: Oc1c(F)cc(-c2cnc3[nH]ccc3c2-c2ccc(N3CCOCC3)cc2)cc1F
7.30

Follow-up entry: CN1CCN(c2ccc(-c3c(-c4ccc(N)nc4)cnc4[nH]ccc34)cc2)CC1
5.14

Follow-up entry: Oc1ccc(-c2cn[nH]c2-c2ccc(O)cc2)cc1
5.55
